Biological target: T1, wild type human CD47 (Acro Biosystems, cat. no. CD7-H5227) (human, UniProt Q08722 19-139)
T1 construct: Bought protein used as SPR analyte; also called Human CD47 wt; wild-type CD47
T1 sequence (Q08722 19-139 limits assumed): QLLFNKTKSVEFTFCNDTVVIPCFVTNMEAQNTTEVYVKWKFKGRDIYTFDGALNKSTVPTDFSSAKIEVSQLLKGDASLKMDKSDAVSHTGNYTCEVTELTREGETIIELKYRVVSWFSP
Assay: SPR, IgG captured, CD47 in flow; exp 2;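 further: IgG from HEK293 cell supernatants tested by SPR on a BIAcore T200, C33G mutein prevents IgV homodimers for monovalent affinity, KD derived from association and dissociation rates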
measuredQuantity: Kd (nM)
Numeric answer only, unit nM assumed.

Previously resolved entries follow.
{"binder": "108VH5 / 108VL1.M5 (antibody, human IgG4 S228P, kappa, V domains shown, Full-length IgG4 (S228P), kappa; also called VH5 VL1.M5) VH: EVQLVQSGAEVKKPGASVKVSCKASGYSFTHHWIHWVRQAPGQGLEWMGMIDPSDSETRLSQKFKDRVTMTRDTSTSTVYMELSSLRSEDTAVYYCARLGRYYFDYWGQGTLVTVSS VL: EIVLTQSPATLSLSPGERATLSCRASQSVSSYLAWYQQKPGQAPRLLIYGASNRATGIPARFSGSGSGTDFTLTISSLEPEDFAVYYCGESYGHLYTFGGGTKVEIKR", "Kd [nM]": 0.82}
{"binder": "108VH5.M10 / 108VL1.M5 (antibody, human IgG4 S228P, kappa, V domains shown, Full-length IgG4 (S228P), kappa; also called VH5.M10 VL1.M5) VH: EVQLVQSGAEVKKPGASVKVSCKASGYTFTHHWIHWVRQAPGQGLEWMGMIDASDSETRYAQKFQGRVTMTRDTSTSTVYMELSSLRSEDTAVYYCARLGRYYFDYWGQGTLVTVSS VL: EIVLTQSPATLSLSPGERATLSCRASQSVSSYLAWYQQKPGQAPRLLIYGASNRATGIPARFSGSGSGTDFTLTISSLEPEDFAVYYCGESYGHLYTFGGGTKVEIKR", "Kd [nM]": 2.8}
{"binder": "108VH5.M12 / 108VL1.M5 (antibody, human IgG4 S228P, kappa, V domains shown, Full-length IgG4 (S228P), kappa; also called VH5.M12 VL1.M5) VH: EVQLVQSGAEVKKPGASVKVSCKASGYTFTHHWMHWVRQAPGQGLEWMGMIDASDSETRYAQKFQGRVTMTRDTSTSTVYMELSSLRSEDTAVYYCARLGRYYFDYWGQGTLVTVSS VL: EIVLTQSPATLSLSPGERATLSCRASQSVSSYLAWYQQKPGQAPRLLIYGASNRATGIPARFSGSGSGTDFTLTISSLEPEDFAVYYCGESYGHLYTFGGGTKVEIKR", "Kd [nM]": 2.7}
{"binder": "108VH5.M11 / 108VL1.M5 (antibody, human IgG4 S228P, kappa, V domains shown, Full-length IgG4 (S228P), kappa; also called VH5.M11 VL1.M5) VH: EVQLVQSGAEVKKPGASVKVSCKASGYTFTHHYIHWVRQAPGQGLEWMGMIDASDSETRYAQKFQGRVTMTRDTSTSTVYMELSSLRSEDTAVYYCARLGRYYFDYWGQGTLVTVSS VL: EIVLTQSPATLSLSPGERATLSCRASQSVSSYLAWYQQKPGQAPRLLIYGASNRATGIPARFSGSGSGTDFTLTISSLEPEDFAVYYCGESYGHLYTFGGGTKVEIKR", "Kd [nM]": 12}
{"binder": "108VH5.M15 / 108VL1.M5 (antibody, human IgG4 S228P, kappa, V domains shown, Full-length IgG4 (S228P), kappa; also called VH5.M15 VL1.M5) VH: EVQLVQSGAEVKKPGASVKVSCKASGYTFTHHWIHWVRQAPGQGLEWMGMIDASDSSTRYAQKFQGRVTMTRDTSTSTVYMELSSLRSEDTAVYYCARLGRYYFDYWGQGTLVTVSS VL: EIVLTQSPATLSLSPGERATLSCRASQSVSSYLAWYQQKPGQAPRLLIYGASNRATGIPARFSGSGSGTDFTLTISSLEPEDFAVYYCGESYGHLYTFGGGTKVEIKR", "Kd [nM]": 22}
{"binder": "108VH5.M14 / 108VL1.M5 (antibody, human IgG4 S228P, kappa, V domains shown, Full-length IgG4 (S228P), kappa; also called VH5.M14 VL1.M5) VH: EVQLVQSGAEVKKPGASVKVSCKASGYTFTHHWIHWVRQAPGQGLEWMGMIDASDGETRYAQKFQGRVTMTRDTSTSTVYMELSSLRSEDTAVYYCARLGRYYFDYWGQGTLVTVSS VL: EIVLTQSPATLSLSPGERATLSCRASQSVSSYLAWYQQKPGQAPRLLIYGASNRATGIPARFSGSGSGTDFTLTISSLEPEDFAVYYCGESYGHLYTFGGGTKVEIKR", "Kd [nM]": 2.6}

Switching to the query record.
Lookup: Field request: Kd | item: chimeric antibody 108C10A6 (antibody, V domains shown, Chimeric antibody with mouse variable domains; captured through human Fc; also called VH / VL) VH: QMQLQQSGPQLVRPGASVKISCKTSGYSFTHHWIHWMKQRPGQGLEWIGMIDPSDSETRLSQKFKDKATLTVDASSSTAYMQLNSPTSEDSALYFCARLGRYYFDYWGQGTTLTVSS VL: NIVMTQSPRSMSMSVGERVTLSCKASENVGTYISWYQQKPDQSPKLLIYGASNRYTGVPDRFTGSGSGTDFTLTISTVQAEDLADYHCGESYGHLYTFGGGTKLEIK
Found: 0.19
